experiment: multispecies PK, summary; assay type: in vivo; conditions: rat, dog, NHP, plasma; across nonclinical species; read-out: Clp s, multispecies
measurement-label: clearance

> print(dat)
                                        mol  endpoint.result
1  Cn1cc2c(-c3cc(F)c(CN4Cc5ncccc5C4=O)c(F)c3)ccc(C(C)(C)O)c2n1   < 10 mL/min/kg

* * *

assay: IV/PO pharmacokinetics (rat); format: in vivo; conditions: Sprague-Dawley, plasma; Rat (SD), 1 mg/kg iv; read-out: Vss
measurement-label: Vd (L/kg)

> print(dat)
                                        mol  endpoint.result
1  Cn1cc2c(-c3cc(F)c(CN4Cc5ncccc5C4=O)c(F)c3)ccc(C(C)(C)O)c2n1              1.3

* * *

test: IV/PO pharmacokinetics (rat); assay type: in vivo; conditions: Sprague-Dawley, plasma; Rat (SD), 10 mg/kg po
measurement-label: AUC

> print(dat)
                                        mol  measurement.label  endpoint.result
1  Cn1cc2c(-c3cc(F)c(CN4Cc5ncccc5C4=O)c(F)c3)ccc(C(C)(C)O)c2n1                AUC         110 µM·h

* * *

test: rat oral dose escalation PK study; format: in vivo; conditions: Sprague-Dawley, rat, plasma, po, 100 mg/kg, rat PO 100 mpk, 100% PEG
measurement-label: AUC (µg·h/mL)

> print(dat)
                                   molecule  reading.unit  endpoint.result
1  Cn1cc2c(-c3cc(F)c(CN4Cc5ncccc5C4=O)c(F)c3)ccc(C(C)(C)O)c2n1 [compound 7]       µg·h/mL              316

* * *

test: rat oral dose escalation PK study; type: in vivo; conditions: Sprague-Dawley, rat, plasma, po, 30 mg/kg, rat PO 30 mpk, 10% Tween
measurement-label: AUC

> print(dat)
                                   compound  endpoint.result
1  Cn1cc2c(-c3cc(F)c(CN4Cc5ncccc5C4=O)c(F)c3)ccc(C(C)(C)O)c2n1 [compound 7]    66700 ng·h/mL

* * *

assay: plasma protein binding, equilibrium dialysis (dog); format: in vitro ADME; conditions: pH 7.4, dog (d), read-out: fu,plasma
measurement-label: fraction unbound at 6 h, 5 µM

> print(dat)
                                        mol  endpoint.result
1  Cn1cc2c(-c3cc(F)c(CN4Cc5ncccc5C4=O)c(F)c3)ccc(C(C)(C)O)c2n1            0.117

* * *

assay: rat oral dose escalation PK study; assay type: in vivo; settings: Sprague-Dawley, rat, plasma, po, 10 mg/kg, rat PO 10 mpk, 100% PEG
measurement-label: Tmax

> print(dat)
                                   compound  measurement.label  endpoint.result
1  Cn1cc2c(-c3cc(F)c(CN4Cc5ncccc5C4=O)c(F)c3)ccc(C(C)(C)O)c2n1 [compound 7]               Tmax           3.33 h

* * *

biological target: CYP 2C19 (Homo sapiens)
Sequence (P33261 whole entry): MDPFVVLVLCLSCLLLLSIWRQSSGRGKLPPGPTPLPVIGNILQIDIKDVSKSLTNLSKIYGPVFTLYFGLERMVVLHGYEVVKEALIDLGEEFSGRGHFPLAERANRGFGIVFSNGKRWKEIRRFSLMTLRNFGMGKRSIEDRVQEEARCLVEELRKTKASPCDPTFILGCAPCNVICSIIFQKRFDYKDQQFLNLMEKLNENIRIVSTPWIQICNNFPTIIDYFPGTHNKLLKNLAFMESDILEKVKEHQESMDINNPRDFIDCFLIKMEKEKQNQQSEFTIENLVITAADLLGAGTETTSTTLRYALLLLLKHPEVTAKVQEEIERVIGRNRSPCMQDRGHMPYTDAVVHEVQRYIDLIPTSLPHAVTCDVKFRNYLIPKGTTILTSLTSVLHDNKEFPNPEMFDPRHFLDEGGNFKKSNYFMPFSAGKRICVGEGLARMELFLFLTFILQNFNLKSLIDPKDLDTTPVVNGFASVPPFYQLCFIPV
pIC50: −log10 of the molar value.
measurement-label: pIC50

> print(dat)
                                        mol         target.or.system  measurement.label  endpoint.result
1  Cn1cc2c(-c3cc(F)c(CN4Cc5ncccc5C4=O)c(F)c3)ccc(C(C)(C)O)c2n1  CYP 2C19 (Homo sapiens)              pIC50           < 4.52
